Ref: patent US20220356147A1

# Test system: A. baumannii 4106 (AB4106)
# test: Broth microdilution, colistin potentiation
# Assay type: cell-based
# experimental parameters: in presence of compound at 1 μM
reported metric: Colistin MIC against AB 4106 (µg/mL)
# value in µg/mL; strip the unit string

Given the compound `O=C(Nc1cc(C(F)(F)F)cc(C(F)(F)F)c1Cl)c1cc(Cl)ccc1O` , what is its reported Colistin MIC against AB 4106?
4

Given the compound `O=C(Nc1cc(C(F)(F)F)ccc1F)c1cc(Cl)ccc1O` , what is its reported Colistin MIC against AB 4106?
8

Given the compound `O=C(Nc1cc(C(F)(F)F)cc(C(F)(F)F)c1)c1cc(-c2ccccc2)ccc1O` , what is its reported Colistin MIC against AB 4106?
64

Given the compound `O=C(Nc1cc(C(F)(F)F)cc(C(F)(F)F)c1Br)c1cc(Cl)ccc1O` , what is its reported Colistin MIC against AB 4106?
4

###

# Tested on: AB 17978 mcr-1
# test: Colistin potentiation, colistin-resistant isolate panel
# Format: cell-based, A. baumannii
# experimental parameters: compound at 5 μM
reported metric: Colistin MIC fold reduction, AB 17978 mcr-1

compound	observed
O=C(Nc1cc(Cl)cc(Cl)c1)c1cc(I)ccc1O [Compound 51]	(512) fold
O=C(Nc1cc(C(F)(F)F)cc(C(F)(F)F)c1)c1cc(Cl)ccc1O [IMD-0354, reference compound]	(128) fold
O=C(Nc1cc(Br)cc(Br)c1)c1cc(Cl)ccc1O [Compound 23]	(128) fold
O=C(Nc1ccc(C(F)(F)F)c(F)c1)c1cc(Cl)ccc1O [Compound 29]	(512) fold

###

# Tested on: AB 3942
# test: Colistin potentiation, colistin-resistant isolate panel
# Type: cell-based, A. baumannii
# experimental parameters: compound at 5 μM
reported metric: Colistin MIC fold reduction, AB 3942

// below: answered molecules
molecule	observed
O=C(Nc1cc(Br)cc(Br)c1)c1cc(Cl)ccc1O	(≥2048) fold
O=C(Nc1cc(C(F)(F)F)cc(C(F)(F)F)c1)c1cc(Cl)ccc1O [IMD-0354, reference compound]	(≥2048) fold
O=C(Nc1cc(Cl)cc(Cl)c1)c1cc(I)ccc1O	(≥4096) fold
O=C(Nc1cc(Br)cc(Br)c1)c1cc(I)ccc1O	(≥4096) fold

Given the molecule `O=C(Nc1ccc(C(F)(F)F)c(F)c1)c1cc(Cl)ccc1O` , what is its reported Colistin MIC fold reduction, AB 3942?
(≥4096) fold

###

# Tested on: A. baumannii 4106 (AB4106)
# test: Broth microdilution, colistin potentiation
# Type: cell-based
# experimental parameters: in presence of compound at 3 μM
reported metric: Colistin MIC against AB 4106

Given the compound `O=C(Nc1cc(C(F)(F)F)cc(C(F)(F)F)c1)c1cc(-c2ccccc2)ccc1O` , what is its reported Colistin MIC against AB 4106?
8 µg/mL

Given the compound `O=C(Nc1cc(C(F)(F)F)ccc1F)c1cc(Cl)ccc1O` , what is its reported Colistin MIC against AB 4106?
2 µg/mL

Given the compound `O=C(Nc1cc(C(F)(F)F)cc(C(F)(F)F)c1Br)c1cc(Cl)ccc1O` , what is its reported Colistin MIC against AB 4106?
1 µg/mL

Given the compound `O=C(Nc1cc(C(F)(F)F)cc(C(F)(F)F)c1Cl)c1cc(Cl)ccc1O` , what is its reported Colistin MIC against AB 4106?
2 µg/mL
